Data provenance is patent US11478451B1.

System: SUDHL5 cells
PROTOCOL TEXT: Antiproliferation assay (CellTiter-Glo, 72 h), SUDHL5
Type: cell-based
CONDITIONS: IC50, median; SUDHL5, 72 h; listed as 075; read-out: Antiproli SUDHL5 [M] (median)
Experimental: Assessment of the Anti-Proliferative Effect of Compounds in Different Cell Lines The impact of compounds on the proliferation of different cell lines was assessed using the CellTiter-Glo® Luminescent Cell Viability reagent from Promega (G7573). In parallel, cells were plated in a reference (day 0) plate for time zero determination. Rim wells were excluded. […] After 72 h incubation, the treated plates were measured in the same way as the day 0 plate mentioned above.

COMPOUND | IC50
CCc1c2c(nn1C)CN(CC(F)F)CCCCn1c(C(=O)O)c(CCCOc3cccc4cc(F)ccc34)c3ccc(Cl)c-2c31 (single isomer, unassigned; enantiomer 1) | 1.6e-06 M

###

SUBJECT OF TEST: MCL-1 (Homo sapiens (Human), UniProt Q07820, K194A/K197A/R201A)
Sequence (Q07820 whole entry K194A/K197A/R201A, looked up): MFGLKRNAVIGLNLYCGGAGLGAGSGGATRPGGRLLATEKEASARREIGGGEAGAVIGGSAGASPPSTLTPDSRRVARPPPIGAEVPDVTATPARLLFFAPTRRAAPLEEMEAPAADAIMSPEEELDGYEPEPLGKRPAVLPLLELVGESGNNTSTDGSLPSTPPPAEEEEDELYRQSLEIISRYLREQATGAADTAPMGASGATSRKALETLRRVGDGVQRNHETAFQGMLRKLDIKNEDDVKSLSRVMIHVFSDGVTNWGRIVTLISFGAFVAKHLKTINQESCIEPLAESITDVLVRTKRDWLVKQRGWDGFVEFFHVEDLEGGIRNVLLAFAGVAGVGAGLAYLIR
PROTOCOL TEXT: Protein-protein interaction assay MCL-1/Noxa BH3 peptide (MCL-1 assay), TR-FRET
Type: binding
CONDITIONS: IC50, median; MCL-1/Noxa BH3 TR-FRET

COMPOUND | SUBJECT OF TEST | IC50 / nM
Cc1c2c(nn1C)COCC1CC1Cn1c(C(=O)O)c(CCCOc3cccc4ccccc34)c3ccc(Cl)c-2c31 (single isomer, unassigned; stereoisomer 1) [Example 65] | MCL-1 (Homo sapiens (Human), UniProt Q07820, K194A/K197A/R201A) | 2.7
Cc1c2c(nn1CCCN1CCN(C)CC1)COCCCCn1c(C(=O)O)c(CCCOc3cccc4ccccc34)c3ccc(Cl)c-2c31 (single isomer, unassigned; enantiomer 1) [Example 49] | MCL-1 (Homo sapiens (Human), UniProt Q07820, K194A/K197A/R201A) | 1.7
Cc1c2c(nn1C)COCC1CC1Cn1c(C(=O)O)c(CCCOc3cccc4ccccc34)c3ccc(Cl)c-2c31 (single isomer, unassigned) [Example 82] | MCL-1 (Homo sapiens (Human), UniProt Q07820, K194A/K197A/R201A) | 1.6

###

Tested on: SUDHL10 cells
PROTOCOL TEXT: Induction of cytotoxicity (CellTiter-Glo, 5 h), SUDHL10
CONDITIONS: read-out: Cytotox SUDHL10 [M] (median); IC50, median; SUDHL10, 5 h
Listing: IC50 of selected compounds
QUANTITY: IC50

COMPOUND | SUBJECT OF TEST | MEASURED
Cc1c2c(nn1C)COCCCCn1c(C(=O)O)c(CCCOc3cccc4ccccc34)c3ccc(Cl)c-2c31 (single isomer, unassigned; enantiomer 1) | SUDHL10 cells | 5e-07 M
CCc1c2c(nn1C)COCC(O)CCn1c(C(=O)O)c(CCCOc3cccc4cc(F)ccc34)c3ccc(Cl)c-2c31 (stereo not drawn) [Example 100] | SUDHL10 cells | 1.8e-07 M
CCc1c2c(nn1C)CN(C)CCCCn1c(C(=O)O)c(CCCOc3cccc4cc(F)ccc34)c3ccc(Cl)c-2c31 (single isomer, unassigned; enantiomer 1) [Example 6] | SUDHL10 cells | 3.6e-07 M
CCc1c2c(nn1C)CCCCCCn1c(C(=O)O)c(CCCOc3cccc4ccccc34)c3ccc(Cl)c-2c31 (single isomer, unassigned; enantiomer 2) [Example 53] | SUDHL10 cells | 9.7e-07 M
Cc1c2c(nn1C)COCCCCn1c(C(=O)O)c(CCCOc3cccc4cc(F)ccc34)c3ccc(Cl)c-2c31 (single isomer, unassigned; enantiomer 1) [Example 15] | SUDHL10 cells | 2.3e-07 M
CCc1c2c(nn1C)CN(C)CC(F)(F)CCn1c(C(=O)O)c(CCCOc3cccc4cc(F)ccc34)c3ccc(Cl)c-2c31 (single isomer, unassigned) [Example 127] | SUDHL10 cells | 3.8e-07 M

###

SUBJECT OF TEST: BCL-XL (Homo sapiens (Human))
Sequence (Q07817 1-212): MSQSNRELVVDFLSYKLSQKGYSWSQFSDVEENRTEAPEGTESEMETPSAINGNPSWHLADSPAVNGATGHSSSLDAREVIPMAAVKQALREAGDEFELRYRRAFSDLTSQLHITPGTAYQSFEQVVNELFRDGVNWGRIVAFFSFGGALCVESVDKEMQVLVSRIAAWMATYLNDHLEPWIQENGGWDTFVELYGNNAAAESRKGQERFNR
PROTOCOL TEXT: Protein-protein interaction assay BCL-XL/Bad BH3 peptide (BCL-XL assay), TR-FRET
Type: binding
CONDITIONS: IC50, median

MOLECULE | IC50
CCc1c2c(nn1C)COC/C=C\Cn1c(C(=O)O)c(CCCOc3cccc4ccccc34)c3ccc(Cl)c-2c31 (racemic) [Example 18] | > 20 µM

###

Test system: SUDHL10 cells
PROTOCOL TEXT: Induction of cytotoxicity (CellTiter-Glo, 5 h), SUDHL10
CONDITIONS: read-out: Cytotox SUDHL10 [M] (median); IC50, median; SUDHL10, 5 h
QUANTITY: log10 IC50 (log10 of the value in M)

MOLECULE | SUBJECT OF TEST | log10 IC50
CCc1c2c(nn1C)CN(C)CCCn1c(C(=O)O)c(CCCOc3cccc4cc(F)ccc34)c3ccc(Cl)c-2c31 [Example 113] | SUDHL10 cells | -6.19
CCc1c2c(nn1C)COCC1(CCn3c(C(=O)O)c(CCCOc4cccc5cc(F)ccc45)c4ccc(Cl)c-2c43)CC1 [Example 111] | SUDHL10 cells | -5.17
CCc1c2c(nn1C)COCC1CC1Cn1c(C(=O)O)c(CCCOc3cccc4cc(F)ccc34)c3ccc(Cl)c-2c31 (racemic) [Example 103] | SUDHL10 cells | -6.15
CCc1c2c(nn1C)CN(C)CCCn1c(C(=O)O)c(CCCOc3cccc4cc(F)ccc34)c3ccc(Cl)c-2c31 [Example 114] | SUDHL10 cells | -5.23
Cc1c2c(nn1C)CN(C)CCCCn1c(C(=O)O)c(CCCOc3cccc4ccccc34)c3ccc(Cl)c-2c31 (single isomer, unassigned; enantiomer 1) | SUDHL10 cells | -6.85
CCc1c2c(nn1C)CCCN(C)CCn1c(C(=O)O)c(CCCOc3cccc4cc(F)ccc34)c3ccc(Cl)c-2c31 (single isomer, unassigned) [Example 116] | SUDHL10 cells | -6.47
CCc1c2c(nn1C)CN(C)CCCCn1c(C(=O)O)c(CCCOc3cccc4cc(F)ccc34)c3ccc(Cl)c-2c31 (single isomer, unassigned; enantiomer 2) [Example 7] | SUDHL10 cells | -5.03
Cc1c2c(nn1C)COCCCCn1c(C(=O)O)c(CCCOc3cccc4cc(F)ccc34)c3ccc(Cl)c-2c31 (single isomer, unassigned; enantiomer 2) [Example 17] | SUDHL10 cells | -6.18
CCc1c2c(nn1C)COCC(O)CCn1c(C(=O)O)c(CCCOc3cccc4cc(F)ccc34)c3ccc(Cl)c-2c31 (stereo not drawn) [Example 99] | SUDHL10 cells | -6.64
CCc1c2c(nn1C)COCC1CC1Cn1c(C(=O)O)c(CCCOc3cccc4cc(F)ccc34)c3ccc(Cl)c-2c31 (racemic) [Example 106] | SUDHL10 cells | -5.24
CCc1c2c(nn1C)COCC(O)CCn1c(C(=O)O)c(CCCOc3cccc4cc(F)ccc34)c3ccc(Cl)c-2c31 (stereo not drawn) [Example 102] | SUDHL10 cells | -5.09
CCc1c2c(nn1C)CN(C)CC(F)(F)CCn1c(C(=O)O)c(CCCOc3cccc4cc(F)ccc34)c3ccc(Cl)c-2c31 (single isomer, unassigned) [Example 128] | SUDHL10 cells | -5.44

###

Tested on: SUDHL5 cells
PROTOCOL TEXT: Antiproliferation assay (CellTiter-Glo, 72 h), SUDHL5
Format: cell-based
CONDITIONS: IC50, median; SUDHL5, 72 h; read-out: Antiproli SUDHL5 [M] (median)
QUANTITY: IC50 (M)

MOLECULE | SUBJECT OF TEST | VALUE UNIT | MEASURED
CCc1c2c(nn1C)CCCCCCn1c(C(=O)O)c(CCCOc3cccc4ccccc34)c3ccc(Cl)c-2c31 (single isomer, unassigned; enantiomer 2) | SUDHL5 cells | M | 7.4e-07
Cc1c2c(nn1C)COCC(F)(F)CCn1c(C(=O)O)c(CCCOc3cccc4ccccc34)c3ccc(Cl)c-2c31 (racemic) [Example 55] | SUDHL5 cells | M | 4.3e-07
Cc1c2c(nn1C)CN(C)CCCCn1c(C(=O)O)c(CCCOc3cccc4ccccc34)c3ccc(Cl)c-2c31 (single isomer, unassigned; enantiomer 2) [Example 13] | SUDHL5 cells | M | 6.4e-06
CCc1c2c(nn1C)CN(C)CC(F)(F)CCn1c(C(=O)O)c(CCCOc3cccc4cc(F)ccc34)c3ccc(Cl)c-2c31 (single isomer, unassigned) [Example 127] | SUDHL5 cells | M | 4.3e-07

###

System: SUDHL5 cells
PROTOCOL TEXT: Antiproliferation assay (CellTiter-Glo, 72 h), SUDHL5
Type: cell-based
CONDITIONS: Homo sapiens, SU-DHL-5, 72 h, IC50, median; SUDHL5, 72 h; read-out: Antiproli SUDHL5 [M] (median)
Description: Assessment of the Anti-Proliferative Effect of Compounds in Different Cell Lines The impact of compounds on the proliferation of different cell lines was assessed using the CellTiter-Glo® Luminescent Cell Viability reagent from Promega (G7573). In parallel, cells were plated in a reference (day 0) plate for time zero determination. Rim wells were excluded. […] After 72 h incubation, the treated plates were measured in the same way as the day 0 plate mentioned above.
Parameter IC50: see the listing below.
QUANTITY: IC50 (M)

MOLECULE | QUANTITY | VALUE UNIT | MEASURED
CCc1c2c(nn1C)COCC1(CCn3c(C(=O)O)c(CCCOc4cccc5ccccc45)c4ccc(Cl)c-2c43)CC1 (racemic) [Example 72] | IC50 | M | 8.8e-07
CCc1nn(CCN2CCOCC2)c2c1-c1c(Cl)ccc3c(CCCOc4cccc5ccccc45)c(C(=O)O)n(c13)CCCCN(C)C2 (racemic) | IC50 | M | 7.2e-06
CCc1nn(CCN2CCOCC2)c2c1-c1c(Cl)ccc3c(CCCOc4cccc5ccccc45)c(C(=O)O)n(c13)C/C=C\CN(C)C2 (racemic) | IC50 | M | 2.7e-06
Cc1c2c(nn1C)COCC1CC1Cn1c(C(=O)O)c(CCCOc3cccc4ccccc34)c3ccc(Cl)c-2c31 (single isomer, unassigned; stereoisomer 1) | IC50 | M | 2.7e-07
CCc1c2c(nn1C)CN(CCC(C)(C)O)CCCCn1c(C(=O)O)c(CCCOc3cccc4cc(F)ccc34)c3ccc(Cl)c-2c31 (single isomer, unassigned; enantiomer 2) | IC50 | M | 1.6e-06
